Recorded inhibition by entry
target: NAD-dependent protein deacetylase (Schistosoma mansoni) (UniProt T1VXA1); assay: Inhibition of recombinant Schistosoma mansoni sirtuin 2 (21 to 322 residues) expressed in Escherichia coli BL21(DE3) cells at 25 uM using ZMAL as susbtrate after 1 hr in presence of NAD+ by homogeneous fluorescence based analysis relative to control
Sequence (T1VXA1 as listed by the source): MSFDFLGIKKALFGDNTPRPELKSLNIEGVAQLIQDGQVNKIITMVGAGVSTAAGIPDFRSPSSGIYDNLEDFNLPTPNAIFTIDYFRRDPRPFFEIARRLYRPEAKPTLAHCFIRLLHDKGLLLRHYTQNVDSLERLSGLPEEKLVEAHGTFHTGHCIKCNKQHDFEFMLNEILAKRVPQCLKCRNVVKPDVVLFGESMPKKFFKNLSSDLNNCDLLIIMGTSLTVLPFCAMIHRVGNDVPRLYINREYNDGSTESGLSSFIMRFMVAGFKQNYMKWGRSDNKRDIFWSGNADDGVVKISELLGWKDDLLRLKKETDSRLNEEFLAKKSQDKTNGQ
value type: inhibition

compound | result
COc1ccc(C(C)N(C)c2ncc3c(N)nc(N)nc3n2)cc1 (stereo unspecified) | < 15%
Nc1nc(N)c2cnc(N3CCc4ccccc4C3)nc2n1 | < 15%
CC(c1ccc(Oc2ccc(OC(F)(F)F)cc2)cc1)N(C)c1ncc2c(N)nc(N)nc2n1 (stereo unspecified) | 20.3%
CC(c1ccccc1)N(C)c1ncc2c(N)nc(N)nc2n1 (stereo unspecified) | < 15%
Nc1ncc2c(N)nc(N)nc2n1 | < 15%
Nc1nc(N)c2cnc(N3CCN(c4ccccc4)CC3)nc2n1 | < 15%

----------
biological target: NAD-dependent protein deacetylase (Schistosoma mansoni, UniProt T1VXA1); test: Inhibition of recombinant Schistosoma mansoni sirtuin 2 (21 to 322 residues) expressed in Escherichia coli BL21(DE3) cells assessed as inhibition of substrate demyristoylation using (Z)-(Myr)-Lys-AMC as substrate
pIC50: −log10 of the molar value.
value type: pIC50

molecule | recorded number
NC(=O)c1cccnc1 [NIACINAMIDE] | 3.38

----------
system: HL-60; test: Cytotoxicity against human HL60 cells at 10 uM after 72 hrs by Cell titer MTS dye based analysis; details: hl-60, 72 h

compound | system | Activity
COc1cc(OC)cc(Oc2ccc(C(c3ccccc3)N(C)c3ncc4c(N)nc(N)nc4n3)cc2)c1 (configuration not stated) | HL-60 | Non-Toxic
COc1ccc(Oc2ccc(C(C)N(C)c3ncc4c(N)nc(N)nc4n3)cc2)cc1 (configuration not stated) | HL-60 | Non-Toxic
COc1cc(OC)cc(Oc2ccc(C(C)N(C)c3ncc4c(N)nc(N)nc4n3)cc2)c1 (configuration not stated) | HL-60 | Non-Toxic
COc1ccc(COc2ccc(C(C)N(C)c3ncc4c(N)nc(N)nc4n3)cc2)cc1 (configuration not stated) | HL-60 | Toxic
COc1cc(OC)cc(Sc2ccc(C(C)N(C)c3ncc4c(N)nc(N)nc4n3)cc2)c1 (configuration not stated) | HL-60 | Non-Toxic
COc1ccc(Oc2ccc(CN(C)c3ncc4c(N)nc(N)nc4n3)cc2)cc1 | HL-60 | Toxic
COc1ccc(Oc2ccc(C(c3ccccc3)N(C)c3ncc4c(N)nc(N)nc4n3)cc2)cc1 (configuration not stated) | HL-60 | Non-Toxic

----------
Recorded inhibition at 25 µM by entry
target: NAD-dependent protein deacetylase sirtuin-1 (Homo sapiens, UniProt Q96EB6); test: Inhibition of human sirtuin 1 at 25 uM relative to control
Sequence (Q96EB6 whole entry): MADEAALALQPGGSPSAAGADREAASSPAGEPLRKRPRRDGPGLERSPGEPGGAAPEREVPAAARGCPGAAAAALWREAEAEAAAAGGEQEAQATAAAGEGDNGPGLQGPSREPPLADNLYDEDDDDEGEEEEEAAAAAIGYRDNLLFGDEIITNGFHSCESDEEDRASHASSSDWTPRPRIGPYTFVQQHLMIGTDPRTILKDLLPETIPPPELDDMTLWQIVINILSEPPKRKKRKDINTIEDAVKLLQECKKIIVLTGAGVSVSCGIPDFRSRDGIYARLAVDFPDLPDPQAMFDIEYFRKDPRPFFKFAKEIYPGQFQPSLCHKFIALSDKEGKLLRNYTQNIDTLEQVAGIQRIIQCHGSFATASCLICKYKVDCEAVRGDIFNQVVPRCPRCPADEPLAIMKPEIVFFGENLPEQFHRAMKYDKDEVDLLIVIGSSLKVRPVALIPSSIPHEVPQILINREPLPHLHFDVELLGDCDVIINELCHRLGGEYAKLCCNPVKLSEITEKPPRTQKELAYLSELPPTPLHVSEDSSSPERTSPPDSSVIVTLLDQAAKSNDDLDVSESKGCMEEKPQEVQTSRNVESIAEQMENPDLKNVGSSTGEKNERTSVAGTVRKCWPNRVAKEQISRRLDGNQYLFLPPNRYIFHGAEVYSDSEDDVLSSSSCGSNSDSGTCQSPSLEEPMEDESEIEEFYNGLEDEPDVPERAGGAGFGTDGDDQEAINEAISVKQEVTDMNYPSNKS
value type: inhibition at 25 µM

compound | result
COc1cc(OC)cc(Oc2ccc(C(c3ccccc3)N(C)c3ncc4c(N)nc(N)nc4n3)cc2)c1 (centres undefined) | < 15%
COc1cc(OC)cc(Sc2ccc(C(C)N(C)c3ncc4c(N)nc(N)nc4n3)cc2)c1 (centres undefined) | < 15%
COc1ccc(Oc2ccc(CN(C)c3ncc4c(N)nc(N)nc4n3)cc2)cc1 | < 15%
COc1ccc(COc2ccc(C(C)N(C)c3ncc4c(N)nc(N)nc4n3)cc2)cc1 (centres undefined) | < 15%

----------
biological target: UniProtKB Q8IXJ6; experiment: Inhibition of N-terminal His6 tagged human sirtuin 2 (25 to 389 residues) using Cbz-Lys(acetyl)-AMC as substrate after 4 hrs in presence of NAD+ by homogeneous fluorescence based analysis

compound | system | IC50
COc1ccc(Sc2ccc(C(C)N(C)c3ncc4c(N)nc(N)nc4n3)cc2)cc1 (stereo not given) | UniProtKB Q8IXJ6 | 13.3 µM
CC(=O)Nc1ccc(-c2noc(CC3CCCN(Cc4cccc(F)c4C)C3)n2)cc1 (stereo not given) | UniProtKB Q8IXJ6 | 3.6 to 8 µM
COc1cc(OC)cc(Sc2ccc(C(c3ccccc3)N(C)c3ncc4c(N)nc(N)nc4n3)cc2)c1 (stereo not given) | UniProtKB Q8IXJ6 | 21.5 µM
COC1=C(OC)C(=O)C(CCCCCCCCCCO)=C(C)C1=O | UniProtKB Q8IXJ6 | 15.4 µM
CCC(c1ccc(Oc2ccc(OC)cc2)cc1)N(C)c1ncc2c(N)nc(N)nc2n1 (stereo not given) | UniProtKB Q8IXJ6 | 36.7 µM

----------
biological target: UniProt:T1VXA1; test: Inhibition of recombinant Schistosoma mansoni sirtuin 2 (21 to 322 residues) expressed in Escherichia coli BL21(DE3) cells assessed as inhibition of substrate deacetylation using ZMAL as substrate
pIC50: −log10 of the molar value.

molecule | pIC50
NC(=O)c1cccnc1 [NIACINAMIDE] | 4.64

----------
Molecular target: NAD-dependent protein deacetylase sirtuin-2 (Homo sapiens)
Sequence (Q8IXJ6 whole entry): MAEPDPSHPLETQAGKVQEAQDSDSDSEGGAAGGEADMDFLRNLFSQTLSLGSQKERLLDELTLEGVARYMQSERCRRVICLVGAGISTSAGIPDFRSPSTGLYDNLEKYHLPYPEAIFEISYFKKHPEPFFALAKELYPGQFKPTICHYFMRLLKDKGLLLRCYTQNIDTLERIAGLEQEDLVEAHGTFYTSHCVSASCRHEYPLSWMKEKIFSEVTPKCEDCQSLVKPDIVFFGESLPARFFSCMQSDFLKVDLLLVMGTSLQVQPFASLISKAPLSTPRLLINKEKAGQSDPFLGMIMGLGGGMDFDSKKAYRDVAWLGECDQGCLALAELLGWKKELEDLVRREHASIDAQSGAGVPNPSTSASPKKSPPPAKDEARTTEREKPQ
Assay: Inhibition of N-terminal His6 tagged human sirtuin 2 (25 to 389 residues) at 25 uM using Cbz-Lys(acetyl)-AMC as substrate after 4 hrs in presence of NAD+ by homogeneous fluorescence based analysis relative to control
value type: inhibition at 25 µM (%)

molecule | uom | censoring operator | recorded number
CN(Cc1ccccc1)c1ncc2c(N)nc(N)nc2n1 | % | < | 15
COc1ccc(Oc2ccc(C(C)Nc3ncc4c(N)nc(N)nc4n3)cc2)cc1 (configuration not stated) | % | = | 21
CSc1ccc(Oc2ccc(C(C)N(C)c3ncc4c(N)nc(N)nc4n3)cc2)cc1 (configuration not stated) | % | < | 15
COc1ccc(COc2ccc(C(C)N(C)c3ncc4c(N)nc(N)nc4n3)cc2)cc1 (configuration not stated) | % | = | 61.7
COc1ccc(Oc2ccc(CN(C)c3ncc4c(N)nc(N)nc4n3)cc2)cc1 | % | < | 15
COc1ccc(Oc2ccc(C(c3ccccc3)N(C)c3ncc4c(N)nc(N)nc4n3)cc2)cc1 (configuration not stated) | % | = | 22.1
Nc1nc(N)c2cnc(N3CCc4ccccc4C3)nc2n1 | % | < | 15
CCCCCCCCCC(=O)Nc1ccc(-c2noc(CC3CCCN(Cc4cccc(F)c4C)C3)n2)cc1 (configuration not stated) | % | < | 15
COc1ccc(Nc2ccc(C(C)N(C)c3ncc4c(N)nc(N)nc4n3)cc2)cc1 (configuration not stated) | % | = | 40.8
COc1cc(OC)cc(Sc2ccc(C(C)N(C)c3ncc4c(N)nc(N)nc4n3)cc2)c1 (configuration not stated) | % | = | 27.9
COc1ccc(Oc2ccc(C(C)N(C)c3ncc4c(N)nc(N)nc4n3)cc2)c2ccccc12 (configuration not stated) | % | = | 30.6
Nc1nc(N)c2cnc(NC3CCN(Cc4ccccc4)CC3)nc2n1 | % | = | 23.2

----------
Recorded inhibition by entry
target: UniProtKB T1VXA1; assay: Inhibition of recombinant Schistosoma mansoni sirtuin 2 (21 to 322 residues) expressed in Escherichia coli BL21(DE3) cells at 25 uM using ZMAL as susbtrate after 1 hr in presence of NAD+ by homogeneous fluorescence based analysis relative to control
value type: inhibition (%)

molecule | value type | uom | censoring operator | recorded number
COc1ccc(COc2ccc(C(C)N(C)c3ncc4c(N)nc(N)nc4n3)cc2)cc1 (stereo not given) | inhibition | % | = | 46.2
COc1ccc(C(=O)Nc2ccc(C(C)N(C)c3ncc4c(N)nc(N)nc4n3)cc2)cc1 (stereo not given) | inhibition | % | = | 41.9
Nc1nc(N)c2cnc(NC3CCN(Cc4ccccc4)CC3)nc2n1 | inhibition | % | < | 15
CC(c1ccc(-c2ccccc2)cc1)N(C)c1ncc2c(N)nc(N)nc2n1 (stereo not given) | inhibition | % | = | 24.8
CSc1ccc(Oc2ccc(C(C)N(C)c3ncc4c(N)nc(N)nc4n3)cc2)cc1 (stereo not given) | inhibition | % | = | 49
CC(c1ccc(Oc2ccccc2)cc1)N(C)c1ncc2c(N)nc(N)nc2n1 (stereo not given) | inhibition | % | = | 27.6
CN(Cc1ccccc1)c1ncc2c(N)nc(N)nc2n1 | inhibition | % | < | 15
CCCCCCCCCC(=O)Nc1ccc(-c2noc(CC3CCCN(Cc4cccc(F)c4C)C3)n2)cc1 (stereo not given) | inhibition | % | < | 15
COc1ccc(Oc2ccc(C(C)Nc3ncc4c(N)nc(N)nc4n3)cc2)cc1 (stereo not given) | inhibition | % | = | 37.5
CCCCCCCC(=O)Nc1ccc(-c2noc(CC3CCCN(Cc4cccc(F)c4C)C3)n2)cc1 (stereo not given) | inhibition | % | = | 30.5

This collection of values is drawn from ChEMBL document CHEMBL4321809.
